FYI, the data here is from patent US8822517B2.

# inhibition at 1 µM listing for each entry below
# System name: dopaminergic D3 receptor (Homo sapiens, UniProt P35462)
# Sequence (P35462 whole entry): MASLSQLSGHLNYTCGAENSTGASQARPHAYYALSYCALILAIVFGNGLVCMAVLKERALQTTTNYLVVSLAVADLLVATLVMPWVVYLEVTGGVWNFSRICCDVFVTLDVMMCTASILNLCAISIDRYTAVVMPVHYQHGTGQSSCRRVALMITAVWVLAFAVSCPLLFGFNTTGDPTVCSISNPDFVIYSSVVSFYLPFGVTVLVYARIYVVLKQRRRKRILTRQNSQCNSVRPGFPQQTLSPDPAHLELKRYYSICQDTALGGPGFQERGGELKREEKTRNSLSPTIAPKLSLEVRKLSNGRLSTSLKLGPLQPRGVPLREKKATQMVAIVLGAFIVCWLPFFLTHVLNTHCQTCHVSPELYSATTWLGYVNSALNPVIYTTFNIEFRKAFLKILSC
# Assay details: Binding assay D3 (h), [3H]methyl-spiperone, CHO cells
# Set-up: expressed in transfected cells; host or cells: CHO cells
# Measurement parameters: read-out: D3 [%]
# Procedure: The specific ligand binding to the receptors is defined as the difference between the total binding and the nonspecific binding determined in the presence of an excess of so unlabelled ligand. The specific Ligand binding to the receptor is defined as the difference between total and non-specific binding determined in the presence of an excess of unlabelled ligand. The compounds were tested at a concentration of 1×10^−6 M, and scintillation counting was the method of detection of ligand binding.

Molecule | inhibition at 1 µM, %
O=S(=O)(NCCCN1CCN(c2nsc3ccccc23)CC1)c1cccc2ccccc12 [Compound 5] | 98
O=S(=O)(NCCCCN1CCC(c2noc3cc(F)ccc23)CC1)c1ccc(Cl)c(Cl)c1 [Compound 297] | 100
O=C1Cc2cc(S(=O)(=O)NCCCCN3CCC(c4noc5cc(F)ccc45)CC3)ccc2N1 [Compound 324] | 103
N#Cc1cccc(S(=O)(=O)NCCCN2CCC(c3noc4cc(F)ccc34)CC2)c1 [Compound 338] | 100
O=S(=O)(NCCCCN1CCN(c2noc3ccccc23)CC1)c1cccc2ccccc12 [Compound 13] | 92
O=S(=O)(NCCCN1CCC(c2noc3cc(F)ccc23)CC1)c1ccc(F)cc1 [Compound 326] | 99
Cc1[nH]c2ccc(Cl)cc2c1C1=CCN(CCCCNS(=O)(=O)c2ccc(F)cc2)CC1 [Compound 368] | 94
O=c1[nH]c2cccc(N3CCN(CCCNS(=O)(=O)c4cccc(Cl)c4)CC3)c2[nH]1 [Compound 174] | 96
O=C1COc2c(cccc2N2CCN(CCCCNS(=O)(=O)c3cccc(Cl)c3)CC2)N1 [Compound 209] | 103
O=c1[nH]c2cccc(N3CCN(CCCCNS(=O)(=O)c4cccc(F)c4)CC3)c2[nH]1 [Compound 175] | 87
O=S(=O)(NCCCN1CCC(c2noc3cc(F)ccc23)CC1)c1ccc(Cl)cc1 [Compound 328] | 99
Cc1cccc(S(=O)(=O)NCCCCN2CCN(c3noc4ccccc34)CC2)c1 [Compound 15] | 88
